Test: Plasma pharmacokinetics of Halofuginone hydrobromide in Beagle dogs (Example C)
Conditions: male, Beagle, dog, in vivo, iv, 0.05 mg/kg, Sample Conc. (plasma)
Where a name gives a salt, the structure may show the parent alone.
Parameter: concentration at 2 h
# include the unit after the value

Quick note, concentration at 2 h for O=C(C[C@@H]1NCCC[C@H]1O)Cn1cnc2cc(Br)c(Cl)cc2c1=O [Halofuginone hydrobromide] landed at 2.13 ng/mL

====

Assay: Plasma pharmacokinetics of Halofuginone hydrobromide in Beagle dogs (Example C)
Settings: male, Beagle, dog, in vivo, sc, 0.03 mg/kg, Mean Conc. (plasma)
Where a name gives a salt, the structure may show the parent alone.
Parameter: concentration at 12 h (ng/mL)
Response body: numeric value in ng/mL, unit text excluded.

Quick note, concentration at 12 h for O=C(C[C@@H]1NCCC[C@H]1O)Cn1cnc2cc(Br)c(Cl)cc2c1=O [Halofuginone hydrobromide] landed at 0.51
